What MIC was measured for each of the following?
test system: Bacillus cereus; assay: Antibacterial activity against clinical isolates of Bacillus cereus ATCC 11778 after 24 hrs by […]; type: functional; conditions: ATCC 11778, 24 h

Known results for compounds:
>>> result("COc1c(OCCCCN2CCN(C(=O)OC(C)(C)C)CC2)cc2oc3cc(OCCCCN4CCN(C(=O)OC(C)(C)C)CC4)c(CC=C(C)C)c(O)c3c(=O)c2c1CC=C(C)C")
"> 50 µg/mL"
>>> result("CCCCN(CCCC)CCCCOc1cc2oc3cc(OCCCCN(CCCC)CCCC)c(OC)c(CC=C(C)C)c3c(=O)c2c(O)c1CC=C(C)C")
"> 50 µg/mL"
>>> result("CCN(CC)CCCCCCCCOc1cc2oc3cc(OCCCCCCCCN(CC)CC)c(OC)c(CC=C(C)C)c3c(=O)c2c(O)c1CC=C(C)C")
"> 50 µg/mL"
>>> result("COc1c(OCCCCn2cncn2)cc2oc3cc(OCCCCn4cncn4)c(CC=C(C)C)c(O)c3c(=O)c2c1CC=C(C)C")
"> 50 µg/mL"
>>> result("COc1c(OCCCCN2CCOCC2)cc2oc3cc(OCCCCN4CCOCC4)c(CC=C(C)C)c(O)c3c(=O)c2c1CC=C(C)C")
"> 50 µg/mL"

Would you mind listing MIC for each of the following compounds?
1. CCN(CC)CCOc1cc2oc3cc(OCCN(CC)CC)c(OC)c(CC=C(C)C)c3c(=O)c2c(O)c1CC=C(C)C
2. COc1c(OCCCCn2cccn2)cc2oc3cc(OCCCCn4cccn4)c(CC=C(C)C)c(O)c3c(=O)c2c1CC=C(C)C

OUT:
> 50 µg/mL
> 50 µg/mL

Quick batch: MIC for everything below.
1. COc1c(OCCCCN2CCSCC2)cc2oc3cc(OCCCCN4CCSCC4)c(CC=C(C)C)c(O)c3c(=O)c2c1CC=C(C)C
2. CCN(CC)CCCCOc1ccc2c(=O)c3c(O)cc(OCCCCN(CC)CC)cc3oc2c1

OUT:
> 50 µg/mL
> 50 µg/mL

###

system: Staphylococcus aureus; assay: Antibacterial activity against clinical isolates of Staphylococcus aureus DM4001R after 24 hrs by […]; format: functional
readout: MIC (µg/mL)
One number for each entry, in µg/mL.

// solved cases for MIC follow
>>> numeric_result("CCN(CC)CCCCCCOc1cc2oc3cc(OCCCCCCN(CC)CC)c(OC)c(CC=C(C)C)c3c(=O)c2c(O)c1CC=C(C)C")
1.56
>>> numeric_result("CCN(CCO)CCCCOc1cc2oc3cc(OCCCCN(CC)CCO)c(OC)c(CC=C(C)C)c3c(=O)c2c(O)c1CC=C(C)C")
6.25
>>> numeric_result("COc1c(OCCCCN2CCCC2)cc2oc3cc(OCCCCN4CCCC4)c(CCC(C)C)c(O)c3c(=O)c2c1CCC(C)C")
12.5
>>> numeric_result("CCN(CC)CCCCOc1cc2oc3cc(OCCCCN(CC)CC)c(OC)c(CC=C(C)C)c3c(=O)c2c(O)c1CC=C(C)C")
0.39
>>> numeric_result("COc1c(OCCCCN(CCO)CCO)cc2oc3cc(OCCCCN(CCO)CCO)c(CC=C(C)C)c(O)c3c(=O)c2c1CC=C(C)C")
3.12

# per-item lookup of MIC; items listed below
1. COc1c(OCCCCN)cc2oc3cc(OCCCCN)c(CC=C(C)C)c(O)c3c(=O)c2c1CC=C(C)C
2. COc1c(OCCCCN(C)C)cc2oc3cc(OCCCCN(C)C)c(CCC(C)C)c(O)c3c(=O)c2c1CCC(C)C
3. CCN(CC)CCCCOc1cc2oc3cc(OCCCCN(CC)CC)c(OC)c(CCC(C)C)c3c(=O)c2c(O)c1CCC(C)C
4. COc1c(OCCCCN2CCNCC2)cc2oc3cc(OCCCCN4CCNCC4)c(CC=C(C)C)c(O)c3c(=O)c2c1CC=C(C)C

OUT:
[1.56, 12.5, 3.12, 6.25]

###

tested on: Staphylococcus aureus; assay: Antibacterial activity against clinical isolates of methicillin-resistant Staphylococcus aureus DM21455 after 24 hrs by […]; assay type: functional; conditions: DM21455, 24 h
readout: MIC (µg/mL)
Answers are plain numbers, in µg/mL.

Check out these entries, answers already filled in.
>>> numeric_result("COc1c(OCCCCN(CCO)CCO)cc2oc3cc(OCCCCN(CCO)CCO)c(CC=C(C)C)c(O)c3c(=O)c2c1CC=C(C)C")
0.78
>>> numeric_result("CCN(C)CCCCOc1cc2oc3cc(OCCCCN(C)CC)c(OC)c(CC=C(C)C)c3c(=O)c2c(O)c1CC=C(C)C")
1.56
>>> numeric_result("COc1c(OCCCCN2CCN(C)CC2)cc2oc3cc(OCCCCN4CCN(C)CC4)c(CC=C(C)C)c(O)c3c(=O)c2c1CC=C(C)C")
12.5

Please go through the list and note MIC for each compound.
1. CCCCN(CC)CCCCOc1cc2oc3cc(OCCCCN(CC)CCCC)c(OC)c(CC=C(C)C)c3c(=O)c2c(O)c1CC=C(C)C
2. CCN(CC)CCCCCOc1cc2oc3cc(OCCCCCN(CC)CC)c(OC)c(CC=C(C)C)c3c(=O)c2c(O)c1CC=C(C)C

OUT:
1: 25; 2: 0.78

###

test system: Staphylococcus aureus; assay: Antibacterial activity against clinical isolates of methicillin-resistant Staphylococcus aureus DM21455 after 24 hrs by […]; format: functional; conditions: DM21455, 24 h
Please go through the items and note down their MIC.

Known MIC results, listed for orientation:
>>> result("CCN(CC)CCCCOc1ccc2c(=O)c3c(O)cc(OCCCCN(CC)CC)cc3oc2c1")
"> 50 µg/mL"
>>> result("COc1c(OCCCCN2CCN(C(=O)OC(C)(C)C)CC2)cc2oc3cc(OCCCCN4CCN(C(=O)OC(C)(C)C)CC4)c(CC=C(C)C)c(O)c3c(=O)c2c1CC=C(C)C")
"> 50 µg/mL"
>>> result("COc1c(OCCCCN2CCOCC2)cc2oc3cc(OCCCCN4CCOCC4)c(CC=C(C)C)c(O)c3c(=O)c2c1CC=C(C)C")
"> 50 µg/mL"
>>> result("CCN(CC)CCCCCCCCOc1cc2oc3cc(OCCCCCCCCN(CC)CC)c(OC)c(CC=C(C)C)c3c(=O)c2c(O)c1CC=C(C)C")
"> 50 µg/mL"

Turning now to a further record.
IN: I'm curious: which MIC was measured for `CCN(CC)CCCCCCCCCCCCOc1cc2oc3cc(OCCCCCCCCCCCCN(CC)CC)c(OC)c(CC=C(C)C)c3c(=O)c2c(O)c1CC=C(C)C` tested on Staphylococcus aureus?
OUT: > 50 µg/mL
